This listing pairs compounds with measured max activity.
Test: inhibitors of Clostridioides difficile proliferation – 4-point retest, confirmation (AID 1224921);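 also: plate controls were DMSO wells for no effect and levofloxacin 16 µg/mL wells for full effect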
Conditions: Clostridioides difficile clinical isolate growth, OD600, 24 h, stronger effect = lower value; at 30 µM unless noted
Out of some 1,400 compounds screened, about 350 (25%) were called active. Another 2% or so got no clear call; they are omitted. These entries were drawn from the full list. Potency and affinity values are given separately.

The cases that follow already have their max activity on record.
1) CNC[C@H]1Oc2cc(C#CCC3CCCC3)ccc2S(=O)(=O)N([C@@H](C)CO)C[C@@H]1C = 29.2% [at 8 µM] (inactive)
2) C[C@H](CO)N1C[C@H](C)[C@@H](CN(C)S(=O)(=O)c2ccsc2)OCc2ccccc2-c2ccccc2C1=O = 26.8% (inactive)
3) COc1ccc(NC(=O)Nc2cccc3c2O[C@@H](CN(C)C(=O)NC2CCCCC2)[C@H](C)CN([C@@H](C)CO)C3=O)cc1 = 10.1% (inactive)
4) N#C[C@@H]1[C@@H](c2ccc(C#Cc3ccc(F)cc3)cc2)[C@H](CO)N1C(=O)C1CCC1 = 35.7% (inactive)
5) C[C@H](CO)N1C[C@H](C)[C@@H](CN(C)Cc2ccncc2)Oc2cc(-c3ccccc3)ccc2S1(=O)=O = 23.5% (inactive)
6) COc1cccc(S(=O)(=O)Nc2ccc3c(c2)[C@H]2C[C@@H](CC(=O)NC4CCCCC4)O[C@@H](CO)[C@H]2O3)c1 = -11.1% [at 1.95 µM] (inactive)
7) CO[C@H]1CN(C)C(=O)c2cc(NS(C)(=O)=O)ccc2OC[C@H](C)N(Cc2ccccn2)C[C@@H]1C = 2.2% (inactive)

Proceed to the following item.
// returns reported max activity for input C[C@@H]1CN([C@@H](C)CO)C(=O)c2ccccc2-c2ccccc2CO[C@H]1CN(C)CC1CC1
9.59% (inactive)

---

Listing: max activity of selected compounds
Assay: inhibitors of Clostridioides difficile proliferation – 4-point retest, confirmation (AID 1224921)
Conditions: Clostridioides difficile clinical isolate growth, OD600, 24 h, stronger effect = lower value; at 30 µM unless noted
The whole screen tested about 1,400 compounds, of which about 350 (25%) were called active. Inconclusive results (about 2%) are left out. These entries were drawn from the full list. Results with a measured potency or affinity are listed apart.

// worked examples, max activity included
1) CO[C@H]1CN(C)C(=O)c2cc(NC(=O)c3ccccc3)ccc2OC[C@H](C)N(C(=O)CN(C)C)C[C@H]1C = -13% [at 1.95 µM] (inactive)
2) C[C@@H]1CN([C@@H](C)CO)C(=O)c2cc(C#CC3CCCCC3)cnc2O[C@H]1CN(C)Cc1cccnc1 = 21.1% (inactive)
3) CC(=O)N(C)C[C@@H]1Oc2ncc(C#Cc3ccc(F)cc3)cc2C(=O)N([C@@H](C)CO)C[C@H]1C = 24.8% (inactive)

Now consider a different compound.
GET /values?readout=max activity&item= COc1ccc(C#Cc2cnc3c(c2)C(=O)N([C@@H](C)CO)C[C@H](C)[C@@H](CN(C)CC2CCOCC2)O3)cc1
8.65% [at 8 µM] (inactive)

---

// values below are reported max activity
Assay: inhibitors of Clostridioides difficile proliferation – 4-point retest, confirmation (AID 1224921)
Conditions: Clostridioides difficile clinical isolate growth, OD600, 24 h, stronger effect = lower value; at 30 µM unless noted
In all, about 1,400 compounds went through this assay and about 350 (25%) were called active. Not shown: some 2% with an inconclusive outcome. Not all results are given here. Potency and affinity values are given separately.

See these solved cases before continuing.
1. CCCN(C)C[C@H]1OCCCC[C@H](C)Oc2ccc(NC(=O)Nc3ccc4c(c3)OCO4)cc2C(=O)N([C@@H](C)CO)C[C@@H]1C = 8.67% (inactive)
2. CCCN1C[C@H](C)[C@H](OC)CN(C)C(=O)c2cc(NC(=O)Nc3cccc(OC)c3)ccc2OC[C@@H]1C = 17.5% [at 35 µM] (inactive)
3. Cc1ccc(-c2ccc3c(c2)O[C@H](CN(C)Cc2ccncc2)[C@H](C)CN([C@@H](C)CO)S3(=O)=O)cc1 = 37.3% (inactive)

Now for a further molecule.
Entry CCCN(C)C[C@H]1OCCCC[C@@H](C)Oc2ccc(NC(=O)Nc3ccc(C(F)(F)F)cc3)cc2C(=O)N([C@H](C)CO)C[C@H]1C : reported max activity = ?
-43.7% (inactive)

---

Experiment: inhibitors of Clostridioides difficile proliferation – 4-point retest, confirmation (AID 1224921);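 also: plate controls were DMSO wells for no effect and levofloxacin 16 µg/mL wells for full effect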
Conditions: Clostridioides difficile clinical isolate growth, OD600, 24 h, stronger effect = lower value; at 30 µM unless noted
Out of some 1,400 compounds screened, about 350 (25%) were called active. Roughly 2% stayed inconclusive and do not appear here. Not all results are given here. Results with a measured potency or affinity are listed apart.
observable: max activity

Sample O=C(N[C@H]1C=C[C@@H](CC(=O)N2CCc3ccccc3C2)O[C@H]1CO)C1CC1 — what was its max activity?
-11.9% [at 1.95 µM] (inactive)

# max activity lookup, item COc1ccc(NC(=O)Nc2cccc3c2O[C@H](CN(C)C(=O)NC2CCCCC2)[C@@H](C)CN([C@@H](C)CO)C3=O)cc1
7.95% (inactive)

---

The compounds listed here are annotated with their max activity.
Assay: inhibitors of Clostridioides difficile proliferation – 4-point retest, confirmation (AID 1224921);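 also: plate controls were DMSO wells for no effect and levofloxacin 16 µg/mL wells for full effect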
Conditions: Clostridioides difficile clinical isolate growth, OD600, 24 h, stronger effect = lower value; at 30 µM unless noted
Out of some 1,400 compounds screened, about 350 (25%) were called active. Not shown: some 2% with an inconclusive outcome. The list is a sample of the results. Results with a measured potency or affinity are listed apart.

Known max activity results, listed for orientation:
1) Cc1ccc(-c2ccc3c(c2)O[C@H](CN(C)Cc2cccnc2)[C@@H](C)CN([C@@H](C)CO)S3(=O)=O)cc1 = 36.5% (inactive)
2) N#C[C@H]1[C@H](c2ccc(C#Cc3ccccc3F)cc2)[C@@H](CO)N1C(=O)C1CCC1 = 26.9% (inactive)
3) CCC(=O)Nc1ccc2c(c1)C(=O)N(C)C[C@H](OC)[C@@H](C)CN(C(=O)CN1CCOCC1)[C@@H](C)CO2 = -6.29% [at 0.5 µM] (inactive)
4) COc1ccc(-c2ccc([C@H]3[C@H](C#N)N(C(=O)NC4CCCCC4)[C@H]3CO)cc2)cc1 = 32.4% (inactive)
5) CO[C@@H]1CN(C)C(=O)c2ccc(NC(=O)c3nc4ccccc4s3)cc2OC[C@H](C)N(Cc2cccnc2)C[C@H]1C = 25.4% (inactive)
6) C[C@H]1CN([C@@H](C)CO)S(=O)(=O)c2ccc(C#CCC3CCCC3)cc2O[C@H]1CN(C)C = 10.1% [at 8 µM] (inactive)
7) C[C@@H]1CCCCO[C@H](CN(C)S(=O)(=O)c2ccc(Cl)cc2)[C@H](C)CN([C@@H](C)CO)C(=O)c2cc(N(C)C)ccc2O1 = 25.4% (inactive)
8) C[C@H](CO)N1C[C@H](C)[C@@H](CN(C)CC2CC2)Oc2cc(-c3ccc(F)cc3)ccc2S1(=O)=O = 38% (inactive)

Now consider the entry below.
Fill blank: measured max activity of the compound Cc1ccc(-c2ccc3c(c2)O[C@@H](CN(C)Cc2cccnc2)[C@H](C)CN([C@@H](C)CO)S3(=O)=O)cc1 is ____.
41.8% (inactive)

---

Measured max activity accompanies every entry in the list below.
Assay: inhibitors of Clostridioides difficile proliferation – 4-point retest, confirmation (AID 1224921);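 also: plate controls were DMSO wells for no effect and levofloxacin 16 µg/mL wells for full effect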
Settings: Clostridioides difficile clinical isolate growth, OD600, 24 h, stronger effect = lower value; at 30 µM unless noted
The whole screen tested about 1,400 compounds, of which about 350 (25%) were called active. Another 2% or so got no clear call; they are omitted. A selection follows. Results with a measured potency or affinity are listed apart.

Observe how each entry below is paired with its result.
1. C[C@@H]1CN([C@@H](C)CO)C(=O)c2c(c3ccccc3n2C)-c2ccccc2CO[C@@H]1CN(C)Cc1cccc(C(=O)O)c1 = -12.2% [at 8 µM] (inactive)
2. C[C@@H]1CN([C@H](C)CO)C(=O)c2cccc(NC(=O)Nc3ccc(F)cc3)c2O[C@H]1CN(C)S(=O)(=O)c1ccc(F)cc1 = -11.6% [at 7.5 µM] (inactive)
3. COc1ccccc1C#Cc1ccc2c(c1)O[C@H](CN(C)Cc1cccnc1)[C@@H](C)CN([C@@H](C)CO)S2(=O)=O = 53.8% (inactive)
4. CC(C)CC#Cc1ccc2c(c1)O[C@@H](CN(C)Cc1ccncc1)[C@H](C)CN([C@@H](C)CO)S2(=O)=O = 29.7% (inactive)
5. COc1ccc(-c2ccc([C@H]3[C@@H](C#N)N(C(=O)C4CC4)[C@H]3CO)cc2)cc1 = 32.9% (inactive)

Which max activity value is on record for CC(C)C#Cc1ccc2c(c1)O[C@@H](CN(C)Cc1ccncc1)[C@H](C)CN([C@H](C)CO)S2(=O)=O ?
6.91% [at 1.95 µM] (inactive)

Requested read-out: max activity. Entry: CO[C@H]1O[C@H](CO)[C@@H](OC(=O)Nc2ccc3c(c2)OCO3)[C@H](OC(=O)Nc2ccccc2)[C@H]1OC(=O)Nc1ccccc1
10.7% (inactive)

Please look up its max activity: CCCC#Cc1ccc2c(c1)O[C@@H](CN(C)C(=O)c1ccccc1F)[C@@H](C)CN([C@@H](C)CO)S2(=O)=O
23.4% (inactive)

Where do the numbers come from? From PubChem BioAssay AID1224921.
